Give log10(EC50) for every item shown.
test system: Vγ2Vδ2 T cells; test: γδ T cell activation (TNF-α release and proliferation); format: cell-based, human; settings: Homo sapiens, T-cell; Table 2, -log10(value, M); read-out: γδ T Cell Avg pED50 (converted)
Hi team, quick reminder: these entries are log10 of EC50 (µM).

Some compounds with recorded log10(EC50):
{"COMPOUND": "CCCCCCCC[S+](C)CC(P(=O)([O-])O)P(=O)(O)O (stereo not drawn)", "OBSERVED_PROPERTY": "log10(EC50)", "QUANTITATIVE_READOUT": 2.03}
{"COMPOUND": "CCCCCCCCCCCC[S+](C)CC(P(=O)([O-])O)P(=O)(O)O (stereo not drawn)", "OBSERVED_PROPERTY": "log10(EC50)", "QUANTITATIVE_READOUT": 0.75}
{"COMPOUND": "CCCCC[S+](C)CC(P(=O)([O-])O)P(=O)(O)O (stereo not drawn)", "OBSERVED_PROPERTY": "log10(EC50)", "QUANTITATIVE_READOUT": 2.10}

Batch: log10(EC50) for all items listed.
1. CCCCCCCCCCc1ccc[n+](CC(P(=O)([O-])O)P(=O)(O)O)c1 (stereo not drawn)
2. CCCCCCCOc1ccc[n+](CC(P(=O)([O-])O)P(=O)(O)O)c1 (stereo not drawn)

[0.23, 1.44]

Given the entry CCCCCCCCc1ccc[n+](CC(P(=O)([O-])O)P(=O)(O)O)c1 (stereo not drawn) , what log10(EC50) was observed with Vγ2Vδ2 T cells? 1.10

* * *

Please respond with reported DPPS pKi for every item in the list.
Molecular target: human DPPS (Homo sapiens)
Construct: made in house
Sequence (Q5T2R2 1-415): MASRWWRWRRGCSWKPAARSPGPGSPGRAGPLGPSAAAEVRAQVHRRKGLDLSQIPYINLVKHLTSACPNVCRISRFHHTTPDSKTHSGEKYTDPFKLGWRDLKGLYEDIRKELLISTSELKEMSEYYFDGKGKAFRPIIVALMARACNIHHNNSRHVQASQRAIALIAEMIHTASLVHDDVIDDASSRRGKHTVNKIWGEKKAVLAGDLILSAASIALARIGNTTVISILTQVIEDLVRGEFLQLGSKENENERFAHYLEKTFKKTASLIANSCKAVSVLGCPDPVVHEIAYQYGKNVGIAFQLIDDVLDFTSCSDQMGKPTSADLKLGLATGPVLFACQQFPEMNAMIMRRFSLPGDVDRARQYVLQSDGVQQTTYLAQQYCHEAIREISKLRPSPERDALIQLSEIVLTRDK
Sequence (Q86YH6 1-399 partner): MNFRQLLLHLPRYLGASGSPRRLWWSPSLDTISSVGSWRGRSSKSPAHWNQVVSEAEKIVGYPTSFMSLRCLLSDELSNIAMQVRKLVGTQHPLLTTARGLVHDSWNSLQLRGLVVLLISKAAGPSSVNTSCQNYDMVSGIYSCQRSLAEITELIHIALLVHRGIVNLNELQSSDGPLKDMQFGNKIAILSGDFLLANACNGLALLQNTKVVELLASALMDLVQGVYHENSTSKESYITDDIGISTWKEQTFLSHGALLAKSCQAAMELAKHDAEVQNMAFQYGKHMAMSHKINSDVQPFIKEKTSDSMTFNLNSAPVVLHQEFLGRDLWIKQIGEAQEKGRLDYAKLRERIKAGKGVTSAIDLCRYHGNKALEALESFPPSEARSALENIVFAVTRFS
Assay: human DPPS enzyme inhibition
Type: biochemical
Conditions: Table 1, experimental
One number for each entry.

Below are worked cases with known answers.
{"COMPOUND": "CCC[S+](C)CC(P(=O)([O-])O)P(=O)(O)O (centres unmarked) [BPH-685]", "TARGET_OR_SYSTEM": "human DPPS (Homo sapiens)", "DPPS pKi": 6.7}
{"COMPOUND": "O=P(O)(O)C(O)(Cc1cccnc1)P(=O)(O)O [BPH-2]", "TARGET_OR_SYSTEM": "human DPPS (Homo sapiens)", "DPPS pKi": 7.3}
{"COMPOUND": "O=P([O-])(O)C(O)(C[n+]1cccc(-c2ccccc2)c1)P(=O)(O)O (centres unmarked) [BPH-300]", "TARGET_OR_SYSTEM": "human DPPS (Homo sapiens)", "DPPS pKi": 6.9}
{"COMPOUND": "O=P(O)(O)C(O)(Cn1ccnc1)P(=O)(O)O [BPH-91, reference compound]", "TARGET_OR_SYSTEM": "human DPPS (Homo sapiens)", "DPPS pKi": 7.4}

Consider the record given below.
What value of DPPS pKi has been recorded for this entry: Cc1ccc[n+](CC(P(=O)([O-])O)P(=O)(O)O)c1 (centres unmarked) [BPH-474] 6.9

* * *

UniProt P14324 measurements of IC50, listed per entry.
Numbers only, in µM.

{"MOLECULE": "C[S+](C)CCC(O)(P(=O)([O-])O)P(=O)(O)O (stereo not shown) [BPH-540]", "TARGET_OR_SYSTEM": "UniProt P14324", "UNIT_DESCRIPTOR": "µM", "QUANTITATIVE_READOUT": 9}
{"MOLECULE": "C[P+](C)(C)CC(O)(P(=O)([O-])O)P(=O)(O)O (stereo not shown) [BPH-536]", "TARGET_OR_SYSTEM": "UniProt P14324", "UNIT_DESCRIPTOR": "µM", "QUANTITATIVE_READOUT": 12.1}

Count: 2. Required value per item: IC50.
1. C[As+](C)(C)CC(O)(P(=O)([O-])O)P(=O)(O)O (stereo not shown) [BPH-560]
2. C[S+](C)CC(O)(P(=O)(O)O)P(=O)(O)O [BPH-527]

1.13
1.03

* * *

target: human FPPS (Homo sapiens); construct: made in house; test: human FPPS enzyme inhibition; format: biochemical; details: Table 1, experimental; read-out: FPPS pKi (converted)
Sequence (P14324 whole entry): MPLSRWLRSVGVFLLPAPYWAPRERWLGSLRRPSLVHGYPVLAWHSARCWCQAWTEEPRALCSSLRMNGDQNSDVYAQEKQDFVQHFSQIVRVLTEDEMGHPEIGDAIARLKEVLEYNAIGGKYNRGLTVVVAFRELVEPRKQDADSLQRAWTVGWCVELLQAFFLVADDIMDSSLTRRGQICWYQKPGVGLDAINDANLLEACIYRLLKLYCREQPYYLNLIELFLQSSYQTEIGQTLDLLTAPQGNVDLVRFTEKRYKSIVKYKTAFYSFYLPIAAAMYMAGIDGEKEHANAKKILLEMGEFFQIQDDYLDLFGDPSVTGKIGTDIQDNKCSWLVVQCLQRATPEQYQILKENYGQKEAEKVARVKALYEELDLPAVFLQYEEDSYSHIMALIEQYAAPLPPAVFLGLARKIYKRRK
Kindly state Ki for each of the entries shown.
Answers are plain numbers, in nM.

Would you mind giving Ki for every compound in the list below?
1. CCCCCCCCCCc1ccc[n+](CC(P(=O)([O-])O)P(=O)(O)O)c1 (stereo not shown)
2. CCCCCCCCCCOc1cccc(CC(O)(P(=O)(O)O)P(=O)(O)O)c1
3. CCCCCCCCc1cc[n+](CC(P(=O)([O-])O)P(=O)(O)O)cc1 (stereo not shown)

1. 15.8
2. 5010
3. 20

# get_value(readout='Ki', item= CCCCC[S+](C)CC(P(=O)([O-])O)P(=O)(O)O (stereo not shown) ) 10

* * *

system: MCF-7 (breast adenocarcinoma); experiment: MCF-7 cell growth inhibition (MTT), incl. FOH/GGOH rescue; type: cell-based, human; conditions: Homo sapiens, MCF7; read-out: IC50, inhibition of human breast cancer cell line MCF7
OBSERVED_PROPERTY: IC50 (nM)
Give bare numbers, in nM.

Entry "CCCCCCCCCCOc1cccc(CC(O)(P(=O)(O)O)P(=O)(O)O)c1" , system MCF-7 (breast adenocarcinoma): what IC50 was measured? 401

* * *

system: SF-268 (central nervous system glioblastoma); test: SF-268 cell growth inhibition (MTT); type: cell-based, human; conditions: Homo sapiens, SF-268; Table 1, experimental; read-out: SF-268 pIC50 (converted)
Assign IC50 to each entry below.

{"COMPOUND": "CCCCCCCCCCOc1cccc(CC(O)(P(=O)(O)O)P(=O)(O)O)c1 [BPH-754]", "TARGET_OR_SYSTEM": "SF-268 (central nervous system glioblastoma)", "IC50": "25.1 µM"}
{"COMPOUND": "CCCCC[S+](C)CC(P(=O)([O-])O)P(=O)(O)O (stereo not shown) [BPH-684]", "TARGET_OR_SYSTEM": "SF-268 (central nervous system glioblastoma)", "IC50": "200 µM"}
{"COMPOUND": "CCCCCCCCCCc1ccc[n+](CC(P(=O)([O-])O)P(=O)(O)O)c1 (stereo not shown) [BPH-638]", "TARGET_OR_SYSTEM": "SF-268 (central nervous system glioblastoma)", "IC50": "0.2 µM"}
{"COMPOUND": "CCCCCCCOc1ccc[n+](CC(P(=O)([O-])O)P(=O)(O)O)c1 (stereo not shown) [BPH-722]", "TARGET_OR_SYSTEM": "SF-268 (central nervous system glioblastoma)", "IC50": "1 µM"}
{"COMPOUND": "CCCCCCCC[S+](C)CC(P(=O)([O-])O)P(=O)(O)O (stereo not shown) [BPH-683]", "TARGET_OR_SYSTEM": "SF-268 (central nervous system glioblastoma)", "IC50": "12.6 µM"}

I would be grateful if you could provide IC50 for each of the following entries.
1. CCCCCCCCc1ccc[n+](CC(P(=O)([O-])O)P(=O)(O)O)c1 (stereo not shown) [BPH-637]
2. CCCCCCCCc1cc[n+](CC(P(=O)([O-])O)P(=O)(O)O)cc1 (stereo not shown) [BPH-717]

1. 1.26 µM
2. 0.631 µM
